# Test system: MOLT-4
# protocol.description: NCI tumour cell line growth inhibition, 48 h
The source made the active and inactive calls. No stated cut-off is given here; in the data, active = GI50 up to about 1.1 µM and inactive = higher.
Hi there, I'd appreciate the recorded GI50 for every entry that follows.

Reference set (9 entries):
>  <compound>
CSC1=C(C)C(/C=N/Nc2ccc([N+](=O)[O-])cc2)=C(C)N(c2ccccc2)S1(=O)=O

>  <GI50>
5.27 µM (inactive)

$$$$
>  <compound>
CC1=NN(C(=O)CC(=O)Nc2ccccc2C)C(=O)C1/N=N/c1ccc(C(=O)O)cc1 (stereo not given)

>  <GI50>
88.1 µM (inactive)

$$$$
>  <compound>
CCCCCCCCCCCCOC1C(COCCN2CCCC2)OC2OC(C)(C)OC21 (stereo not given)

>  <GI50>
1.92 µM (inactive)

$$$$
>  <compound>
NNc1nncc2[nH]nnc12

>  <GI50>
> 100 µM (inactive)

$$$$
>  <compound>
COC(=O)c1ccc(N/C=C(/C#N)c2ccsc2)cc1

>  <GI50>
> 100 µM (inactive)

$$$$
>  <compound>
CC(=O)NC(ON1C(=O)COc2ccccc21)C(Cl)(Cl)Cl (stereo not given)

>  <GI50>
> 100 µM (inactive)

$$$$
>  <compound>
O=C(Nc1nc2ccc([N+](=O)[O-])cc2s1)C(=O)C(C(=O)c1ccccc1F)C1OC(=O)c2ccccc21 (stereo not given)

>  <GI50>
17.7 µM (inactive)

$$$$
>  <compound>
C=CCN(N=O)C(=O)NCCCCC(NC(C)=O)C(=O)NCc1ccccc1 (stereo not given)

>  <GI50>
> 100 µM (inactive)

$$$$
>  <compound>
OC(C1CCCCCCCCCC1)C(O)C1CCCCCCCCCC1 (stereo not given)

>  <GI50>
37.1 µM (inactive)

$$$$

As a next step, examine the compound that follows.
Bench note: what GI50 did O=C1CSC(c2ccc([N+](=O)[O-])cc2)N1c1ccc(-c2ccc(-n3c(-c4ccccc4)nc4ccccc4c3=O)cc2)cc1 (stereo not given) show?
20.4 µM (inactive)

* * *

# Test system: SNB-19
# protocol.description: NCI tumour cell line growth inhibition, 48 h
The source made the active and inactive calls. Rule as the data show it: active = GI50 up to about 1.1 µM and inactive = higher. Non-standard residues stand in square brackets, D forms with d. Residues, ends and D or L forms follow the SMILES beside them. β3hI = CC[CH](C)[CH](N)CC(=O)O
Hi there, I'd appreciate the recorded GI50 for every entry that follows.

Reference set (6 entries):
>  <molecule>
COC(=O)C1=C(OC(=O)/C=C/c2ccc(Cl)cc2)C(C(=O)OC)[C@@]2(O)[C@@H](C(=O)OC)[C@H](C)C[C@@H]1[C@@H]2C(=O)OC (stereo partly drawn)

>  <GI50>
30.8 µM (inactive)

$$$$
>  <molecule>
NC(=O)NCCCC(NC(=O)OCCCCn1ccc(=O)[nH]c1=O)C(=O)O (stereo not drawn)

>  <GI50>
> 100 µM (inactive)

$$$$
>  <molecule>
Cc1ccc(C)c(NC(=O)C(=O)C2C(=O)N(c3ccccc3)N=C2N)c1 (stereo not drawn)

>  <GI50>
> 100 µM (inactive)

$$$$
>  <molecule>
Cn1c2ccccc2c2[nH]c3ccccc3c(=O)c21

>  <GI50>
93.3 µM (inactive)

$$$$
>  <molecule>
Clc1ccc(Cl)c(Nc2ccnc(SCc3ccccc3)n2)c1

>  <GI50>
> 100 µM (inactive)

$$$$
>  <molecule>
Cc1ccc2[nH]c3[nH]c(=S)[nH]c(=O)c3c2c1

>  <GI50>
> 100 µM (inactive)

$$$$

Look at each molecule and report its GI50.
1. COc1ccc(CC(=O)c2cc(OC)c(OC)cc2C)cc1OC
2. CCC(C)C(CC(=O)N1CCCC1C(=O)NC(C(=O)NC(C(=O)NCC(=O)NC(CC(N)=O)C(=O)NC(C(=O)NC(C(=O)NC(CCCCN)C(N)=O)C(C)CC)C(C)CC)C(C)C)C(C)CC)NC(=O)C(N)C(C)CC (stereo not drawn) (H-I[β3hI]PIVGNIIK-NH2; configuration not given here)

1: 68.4 µM (inactive); 2: > 50 µM (inactive)

* * *

# Test system: HCT-15
Counter-ions that a name gives are not always drawn.
// assign condition met if GI50 falls strictly below 30 µM, else condition not met (ties count as condition not met)

>  <compound>
CN(C)C(c1ccccc1)C(O)c1ccccc1 (stereo not given)

>  <study.target>
HCT-15

>  <label.class>
condition not met

$$$$
>  <compound>
CCCCCC(O)C(O)CCC[C@H](O)[C@H]1CC[C@H]([C@H]2CC[C@H]([C@H](O)CCCCCCCCCCCCC3=C[C@H](C)OC3=O)O2)O1 (stereo not given in full)

>  <study.target>
HCT-15

>  <label.class>
condition met

$$$$
>  <compound>
CCSSCS(C)(=O)=O

>  <study.target>
HCT-15

>  <label.class>
condition met

$$$$
>  <compound>
CC(C)=CCC[C@@H](C)C1=C(O)C(O)C(C)=C2N=C(c3ccccc3)C(=O)OC21 (stereo not given in full)

>  <study.target>
HCT-15

>  <label.class>
condition met

$$$$
>  <compound>
Cn1ncc2c(c1=O)Nc1ccccc1S2(=O)=O

>  <study.target>
HCT-15

>  <label.class>
condition not met

$$$$
>  <compound>
O=C1NC(=S)N/C1=C\c1ccc(Cl)cc1

>  <study.target>
HCT-15

>  <label.class>
condition not met

$$$$

Strictly below 30 µM: is that where GI50 of CCN(CC)CCNc1ccc(C)c2sc3ccccc3c(=O)c12 [LUCANTHONE HYDROCHLORIDE] sits?
condition met

Strictly below 30 µM: is that where GI50 of Oc1c(Br)cc(Br)cc1CN(Cc1cc(Br)cc(Br)c1O)C1CCCCC1 sits?
condition not met

Strictly below 30 µM: is that where GI50 of CCOc1ccc(NC(=O)CCC(=O)NN)cc1 sits?
condition not met

* * *

Hi there, I'd appreciate the recorded GI50 for every entry that follows.
# System: LOX IMVI
# protocol.description: NCI tumour cell line growth inhibition, 48 h
Calls of active or inactive are those of the source. No stated cut-off is given here; in the data, active = GI50 up to about 1.1 µM and inactive = higher.

>  <compound>
O=C1C=CC(=C(c2ccccc2)c2ccc(O)cc2)C=C1

>  <GI50>
4.51 µM (inactive)

$$$$
>  <compound>
COc1cc(C(=O)/C=C/c2ccc(OCCSCCCCCCCCCCSCCOc3ccc(/C=C/C(=O)c4cc(OC)c(OC)c(OC)c4)cc3)cc2)cc(OC)c1OC

>  <GI50>
> 100 µM (inactive)

$$$$
>  <compound>
O=C1CCC(=O)N1Sc1ccccc1

>  <GI50>
> 100 µM (inactive)

$$$$
>  <compound>
O=CN/C=C/c1cccc(O)c1

>  <GI50>
48.4 µM (inactive)

$$$$
>  <compound>
COc1ccc2c(c1)c1cc(OC)ccc1n2CCCCOc1ccc(-c2c3ccccc3c(-c3ccc(OCCCCn4c5ccc(OC)cc5c5cc(OC)ccc54)cc3)c3ccccc23)cc1

>  <GI50>
> 100 µM (inactive)

$$$$
>  <compound>
CCCCCC(O)C(O)CCC[C@H](O)[C@H]1CC[C@H]([C@H]2CC[C@H]([C@H](O)CCCCCCCCCCCCC3=C[C@H](C)OC3=O)O2)O1 (some centres undefined)

>  <GI50>
1.21 µM (inactive)

$$$$

Look at each compound and report its GI50.
1. COc1ccc(OC)c(N2C(=O)CSC2c2cc(OC)c(OC)c(OC)c2)c1 (centres undefined)
2. CCc1cccc(CC)c1Nc1nc2c(s1)C(=O)c1ccccc1C2=O
3. Cc1cc(=O)oc2c(C)c3oc(CBr)c(Br)c3cc12

["> 100 µM (inactive)", "18 µM (inactive)", "12.6 µM (inactive)"]

* * *

# System: OVCAR-8
# protocol.description: NCI tumour cell line growth inhibition, 48 h
Activity calls are given as the source filed them. No stated cut-off is given here; in the data, active = GI50 up to about 1.1 µM and inactive = higher.
Outcomes you can answer with include only these: active, inactive

I'd appreciate the recorded outcome for C=C(C)[C@@H]1CC[C@]2(C(=O)O)CC[C@]3(C)[C@H](CC[C@@H]4[C@@]5(C)CC[C@H](C(=O)/C=C/c6ccc(O)cc6)C(C)(C)[C@@H]5CC[C@]43C)[C@@H]12 from this test.
inactive

I'd appreciate the recorded outcome for O=c1oc2c(Br)c(O)c(Br)cc2c2ccccc12 from this test.
inactive

I'd appreciate the recorded outcome for NC(=S)N1N=C2c3ccccc3CC[C@H]2[C@@H]1c1ccc(Cl)cc1 from this test.
inactive

I'd appreciate the recorded outcome for N#CC(C#N)/N=N/c1ccc(-c2nc3ccccc3o2)cc1 from this test.
inactive

I'd appreciate the recorded outcome for N#CCCNCCN(CCN(C(=O)Nc1ccccc1)c1ccccc1)C(=O)Nc1ccccc1 from this test.
inactive

I'd appreciate the recorded outcome for N[C@H]1CCN(c2c(F)cc3c(=O)c(C(=O)O)cn4c3c2Oc2c-4ccc3c2ccc2ccccc23)C1 from this test.
active

I'd appreciate the recorded outcome for C=C1C(=O)OC2C1CC1OC2C(C)CCC/C(C)=C\CCC1(C)O (centres undefined) from this test.
inactive

I'd appreciate the recorded outcome for COC1=C(Br)[C@H](O)[C@@]2(C=C1Br)CC(C(=O)NCCCCCNC(=N)N)=NO2 from this test.
inactive

I'd appreciate the recorded outcome for CCC1(c2ccccc2)C(=O)N=C(c2ccccc2)N1CCc1ccccc1 (centres undefined) from this test.
inactive
